Data credit: PubChem BioAssay AID1159580

Assay: chemical genetic growth profiling, strain panel (AID 1159580);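 also: tested at 20 µM; growth read once vehicle control cultures reached saturation at 30 °C; 1 = growth at the plate median or of vehicle wells; lower values mean less growth of the strain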
Settings: S. cerevisiae deletion strains, growth OD, locus YHR079C, strain IRE1 (second series)
Among all 5,500 compounds or so, about 2,000 (36%) were called active. Not shown: some 18% with an inconclusive outcome. Rule as the data show it: active = normalized growth mostly below about 0.91 (no sharp cut-off); inconclusive = no clear call, values can overlap the other calls; inactive = mostly above about 0.92. Some of the results follow.
Write down the outcome that applies. Available outcomes: 1.0 = active, 0.0 = inactive

{"compound": "CC(=O)Oc1ccc(O)cc1", "label": 0.0}
{"compound": "CC(C)CCCC(C)C1CCC2C3CC[C@H]4C[C@@H](O)CC[C@]4(C)C3CC[C@]12C (some centres undefined)", "label": 0.0}
{"compound": "CC(C)CCCC(C)[C@H]1CCC2C3CC[C@@H]4C[C@H](O)CC[C@]4(C)C3CC[C@@]21C (some centres undefined)", "label": 0.0}
{"compound": "CC(C)CCCC(C)[C@H]1CCC2C3CC=C4CC(=O)CC[C@]4(C)C3CC[C@@]21C (some centres undefined)", "label": 0.0}

Input: State the result this test recorded for CC(C)=CCc1c2c(c3occ(-c4ccc(O)cc4)c(=O)c3c1O)C=CC(C)(C)O2 .
Output: 0.0

Input: State the result this test recorded for CC(C)CCCC(C)C1CCC2C3C[C@@H](O)[C@@]4(O)C[C@@H](O)CC[C@]4(C)C3CC[C@]12C (some centres undefined) .
Output: 0.0

----------
Assay: chemical genetic growth profiling, strain panel (AID 1159580)
Settings: S. cerevisiae deletion strains, growth OD, locus YPR141C, strain kar3
Hit rate of the full screen: of about 5,500 compounds, about 2,000 (36%) were called active. About 18% were inconclusive and are not listed. Rule as the data show it: active = normalized growth mostly below about 0.91 (no sharp cut-off); inconclusive = no clear call, values can overlap the other calls; inactive = mostly above about 0.92. The list shows a part of the results.
Write down the outcome that applies. Available outcomes: active, inactive

Solved entries:
{"compound": "COc1ccc2cc(CCC(C)=O)ccc2c1", "label": "inactive"}
{"compound": "NCCCCCCNS(=O)(=O)c1cccc2c(Cl)cccc12", "label": "inactive"}
{"compound": "CC(=O)OCC(=O)[C@@]1(O)[C@H](C)CC2C3CCC4=CC(=O)C=C[C@]4(C)[C@@]3(F)[C@@H](O)C[C@@]21C (stereo not given in full)", "label": "inactive"}
{"compound": "CC(CCc1ccccc1)NCC(O)c1ccc(O)c(C(N)=O)c1 (stereo not given)", "label": "inactive"}
{"compound": "COc1cc(C/C=C/c2ccccc2)c(OC)cc1O", "label": "active"}

Input: State the result this test recorded for C=C1C[C@]23C[C@@]1(O)CC[C@H]2[C@@]12C=C[C@H](O)[C@@](C)(C(=O)O1)[C@H]2[C@@H]3C(=O)O .
Output: inactive

----------
Listing: normalized growth of selected compounds
Test: chemical genetic growth profiling, strain panel (AID 1159580)
Settings: S. cerevisiae deletion strains, growth OD, locus YOR231W, strain MKK1, stronger effect = lower value
Hit rate of the full screen: of about 5,500 compounds, about 2,000 (36%) were called active. About 18% were inconclusive and are not listed. The list shows a part of the results.
The answer should be written as a number, with no unit following it.

{"compound": "C#CCSC1=NNC(c2ccccn2)S1 (stereo not given)", "numeric result": 0.149}
{"compound": "CC(CCC(=O)O)[C@H]1CCC2C3C(=O)C[C@@H]4CC(=O)CC[C@]4(C)C3CC(=O)[C@@]21C (stereo not given in full)", "numeric result": 1.07}
{"compound": "CC(C)(C)c1cc(C(=O)Nc2ccc3c(c2)OCO3)n(Cc2ccc(F)cc2)n1", "numeric result": 0.876}
{"compound": "Cc1onc(-c2c(F)cccc2Cl)c1/C(N)=N\\OC(=O)c1ccc(C(C)(C)C)cc1", "numeric result": 1.05}
{"compound": "Brc1ccc(-c2csc(-c3ccncc3)n2)cc1", "numeric result": 0.488}
{"compound": "NS(=O)(=O)c1cc2c(cc1Cl)NC(CSCc1ccccc1)=NS2(=O)=O", "numeric result": 0.959}

Input: Entry CSc1n[nH]c(-c2cc(C(C)(C)C)oc2C)c1C#N : reported normalized growth = ?
Output: 0.847

Input: Entry CC(CCC(=O)O)[C@H]1CCC2C3CC[C@@H]4CC(=O)CC[C@]4(C)C3C=C[C@@]21C (stereo not given in full) : reported normalized growth = ?
Output: 0.913

Input: Entry CC(=O)O[C@H]1CCC2(C)C3=C(CCC2C1(C)C)[C@]1(C)CCC(C(C)CCC=C(C)C)[C@@]1(C)CC3 (stereo not given in full) : reported normalized growth = ?
Output: 0.969

----------
Experiment: chemical genetic growth profiling, strain panel (AID 1159580)
Conditions: S. cerevisiae deletion strains, growth OD, locus YIL073C, strain SPO22, stronger effect = lower value
About 2,000 (36%) of roughly 5,500 compounds were called active. Another 18% or so got no clear call; they are omitted. The list shows a part of the results.
Listing: normalized growth of selected compounds
The answer should be written as a number, with no unit following it.

Input: Entry CC(=O)c1cc(CC=C(C)C)c(O)c(CC=C(C)C)c1 : reported normalized growth = ?
Output: 0.846

Input: Entry O=C(O)c1cccnc1 : reported normalized growth = ?
Output: 1.01

Input: Entry COc1ccc([C@@H]2CC(=O)c3c(O)cc(O[C@@H]4O[C@H](CO[C@H]5O[C@@H](C)[C@H](O)[C@@H](O)[C@H]5O)[C@@H](O)[C@H](O)[C@H]4O)cc3O2)cc1O : reported normalized growth = ?
Output: 1

----------
Assay: chemical genetic growth profiling, strain panel (AID 1159580);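 also: tested at 20 µM; growth read once vehicle control cultures reached saturation at 30 °C; 1 = growth at the plate median or of vehicle wells; lower values mean less growth of the strain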
Details: S. cerevisiae deletion strains, growth OD, locus YDL101C, strain DUN1, stronger effect = lower value
The campaign covered roughly 5,500 compounds. About 2,000 (36%) were called active. About 18% were inconclusive and are not listed. Some of the results follow.
recorded metric: normalized growth

Use these answered entries as a reference point.
{"molecule": "CC(=O)OCC(=O)[C@@]1(O)[C@H](C)CC2C3CCC4=CC(=O)C=C[C@]4(C)[C@@]3(F)[C@@H](O)C[C@@]21C (stereo not given in full)", "result": "0.999 (inactive)"}
{"molecule": "c1ccc(CN2CCC(n3nnc4cccnc43)CC2)cc1", "result": "0.987 (inactive)"}
{"molecule": "CC12CCC(O)CC1CCC1C2[C@H](O)CC2(C)C(C3=CC(=O)OC3)CCC12O (stereo not given in full)", "result": "1.02 (inactive)"}
{"molecule": "Clc1ccc(CN2CCN(c3cccc4[nH]ccc34)CC2)cc1Cl", "result": "0.988 (inactive)"}

Input: Entry CCC(C)C(=O)OC1[C@@H]2CC3=C4CC(=O)O[C@@H](c5ccoc5)[C@]4(C)CCC3[C@@](C)(C2=O)[C@@H](CC(=O)OC)C1(C)C (stereo not given in full) : reported normalized growth = ?
Output: 1.02 (inactive)

----------
Test: chemical genetic growth profiling, strain panel (AID 1159580);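 also: tested at 20 µM; growth read once vehicle control cultures reached saturation at 30 °C; 1 = growth at the plate median or of vehicle wells; lower values mean less growth of the strain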
Conditions: S. cerevisiae deletion strains, growth OD, locus YPR141C, strain kar3, stronger effect = lower value
Hit rate of the full screen: of about 5,500 compounds, about 2,000 (36%) were called active. Not shown: some 18% with an inconclusive outcome. Some of the results follow.
Listing: normalized growth of selected molecules
The answer should be written as a number, with no unit following it.

{"molecule": "COc1ccc(C2Sc3ccccc3N(CCN(C)C)C(=O)C2OC(C)=O)cc1 (stereo not given)", "numeric result": 1.06}
{"molecule": "CN(C)CCCN1c2ccccc2CCc2ccccc21", "numeric result": 0.993}
{"molecule": "C[C@H]1c2cccc(O)c2C(O)=C2C(=O)[C@]3(O)C(O)=C(C(N)=O)C(=O)[C@@H](N(C)C)[C@@H]3[C@@H](O)[C@@H]21", "numeric result": 0.965}
{"molecule": "CN(C)c1ccc(O)c2c1C[C@H]1C[C@H]3[C@H](N(C)C)C(=O)C(C(N)=O)=C(O)[C@@]3(O)C(=O)C1=C2O", "numeric result": 0.997}

Input: Entry CN(C)CCCN1c2ccccc2Sc2ccc(Cl)cc21 : reported normalized growth = ?
Output: 1.02

Input: Entry CN(C)CCCN1c2ccccc2Sc2ccc(C(F)(F)F)cc21 : reported normalized growth = ?
Output: 0.926

Input: Entry Cc1cc(=O)oc2cc(O)c(O)cc12 : reported normalized growth = ?
Output: 1.02

Input: Entry C=C1c2c(Cl)ccc(O)c2C(O)=C2C(=O)[C@]3(O)C(O)=C(C(N)=O)C(=O)[C@@H](N(C)C)[C@@H]3[C@@H](O)[C@H]12 : reported normalized growth = ?
Output: 0.979

Input: Entry CC1(C)CC2C1CC[C@]1(CBr)CCC3C(CC(=O)O)C(=O)O[C@@]32C1 (stereo not given in full) : reported normalized growth = ?
Output: 0.991

Input: Entry N=C(N)N : reported normalized growth = ?
Output: 0.982

----------
Assay: chemical genetic growth profiling, strain panel (AID 1159580);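 also: tested at 20 µM; growth read once vehicle control cultures reached saturation at 30 °C; 1 = growth at the plate median or of vehicle wells; lower values mean less growth of the strain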
Details: S. cerevisiae deletion strains, growth OD, locus YGL227W, strain vid30, stronger effect = lower value
Out of some 5,500 compounds screened, about 2,000 (36%) were called active. About 18% were inconclusive and are not listed. The list shows a part of the results.
Listing: normalized growth of selected molecules
The answer should be written as a number, with no unit following it.

Input: Entry O=C(OOC(=O)c1ccccc1)c1ccccc1 : reported normalized growth = ?
Output: 0.981
